experimental_target: Cy5-labelled Mcl1 (amino acids 171-321) C286S protein (UniProtKB Q07820) (Homo sapiens (Human), UniProt Q07820, C286S)
Sequence (Q07820 171-321 C286S): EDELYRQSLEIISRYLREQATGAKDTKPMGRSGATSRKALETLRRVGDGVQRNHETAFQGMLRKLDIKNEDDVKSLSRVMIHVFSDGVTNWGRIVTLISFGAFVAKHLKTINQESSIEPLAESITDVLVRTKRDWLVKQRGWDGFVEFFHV
protocol_summary: Inhibition of Mcl-1 by the fluorescence quenching assay (Example A, Method B)
Assay type: binding
pKi: −log10 of the molar value.
We'd kindly ask you to apply these pKi classes: c1: < 8; c2: ≥ 8 and < 9; c3: ≥ 9

Take a look at these entries with their results.
{"compound": "C[C@@H](COc1ccnc2c1CCC[C@H]2F)C[C@H]1Cc2ccccc2[C@]12CC[C@@](Nc1cccc(Cl)c1)(C(=O)O)CC2", "assigned_class": "c2"}
{"compound": "C[C@@H]1CCCc2nccc(OCC(F)CC3Cc4ccccc4[C@]34CC[C@@](Nc3cccc(Cl)c3)(C(=O)O)CC4)c21 (single isomer, unassigned) [Example 509]", "assigned_class": "c2"}
{"compound": "C[C@@H](COc1ccnc2c1[C@H](CC(F)(F)F)CCC2)C[C@H]1Cc2ccccc2[C@]12CC[C@@](Nc1cccc(Cl)c1)(C(=O)O)CC2", "assigned_class": "c1"}
{"compound": "CC(C)Oc1ccc2c(c1)[C@]1(CC[C@@](Nc3cccc(Cl)c3)(C(=O)O)CC1)[C@@H](C[C@@H](C)COc1ccnc3c1[C@H](C)CCC3)C2", "assigned_class": "c3"}
{"compound": "Cc1ccc2[nH]ccc2c1OCCC[C@H]1Cc2ccccc2[C@]12CC[C@@](Nc1cccc(Cl)c1)(C(=O)O)CC2", "assigned_class": "c1"}

Category of C[C@@H](COc1cccc2[nH]ccc12)CC1Cc2ccccc2[C@]12CC[C@@](Nc1cccc(Cl)c1)(C(=O)O)CC2 (some centres unmarked) :
c1

Would you kindly repeat that for CC(O)c1ccc2c(c1)[C@]1(CC[C@@](Nc3cccc(Cl)c3)(C(=O)O)CC1)[C@@H](C[C@@H](C)COc1ccnc3c1[C@H](C)CC[C@H]3O)C2 (single isomer, unassigned) [Example 862] ?
c3

Next compound up: "C[C@@H](COc1ccnc2c1[C@H](C)CCC2)C[C@H]1Cc2ccccc2[C@]12CC[C@@](Nc1ccnc(Cl)c1)(C(=O)O)CC2"
c2

---

experimental_target: Mcl-1 protein (UniProtKB Q07820) (Homo sapiens (Human), UniProt Q07820)
Sequence (Q07820 whole entry): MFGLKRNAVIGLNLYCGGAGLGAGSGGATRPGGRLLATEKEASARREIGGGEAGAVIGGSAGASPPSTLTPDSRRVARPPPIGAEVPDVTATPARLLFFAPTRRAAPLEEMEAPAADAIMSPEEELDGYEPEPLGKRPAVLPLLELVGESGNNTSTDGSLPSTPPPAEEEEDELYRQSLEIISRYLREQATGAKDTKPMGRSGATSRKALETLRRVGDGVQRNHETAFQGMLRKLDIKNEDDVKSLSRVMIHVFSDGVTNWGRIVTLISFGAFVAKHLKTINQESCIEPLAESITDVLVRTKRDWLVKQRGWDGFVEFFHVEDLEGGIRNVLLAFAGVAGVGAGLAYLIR
protocol_summary: Inhibition of Mcl-1 by the fluorescence polarisation assay (Example A, Method A)
test_context: fluorescence polarization assay
Description: The relative binding potency of each compound was determined via Fluorescence Polarisation (FP). The method utilised a Fluorescein labelled ligand (Fluorescein-βAla-Ahx-A-REIGAQLRRMADDLNAQY-OH; MW 2,765) which binds to the Mcl-1 protein (such that Mcl-1 corresponds to the UniProtKB® primary accession number: Q07820) leading to an increased anisotropy measured in milli-polarisation (mP) units using a reader. […]
pKi: −log10 of the molar value.
Kind request: treat 6 as inclusive, so pKi at 6 or higher is label 1, anything lower is label 0.

Solved entries:
{"compound": "COc1ccc(C)c(C2Cc3ccccc3[C@]23CC[C@@](Nc2cccc(Cl)c2)(C(=O)O)CC3)c1 (single isomer, unassigned) [Example 270]", "assigned_class": "label 0"}
{"compound": "COc1ccc([C@@H]2Cc3ccccc3[C@]23CC[C@@](Nc2cccc(Br)c2)(C(=O)O)CC3)cc1", "assigned_class": "label 1"}
{"compound": "CN1c2ccc(C3CC3)cc2[C@]2(CC[C@](Nc3cccc(Br)c3)(C(=O)O)CC2)C1=O", "assigned_class": "label 0"}
{"compound": "COc1ccc(C2Cc3ccccc3[C@]23CC[C@@](Nc2cccc(Cl)c2)(C(=O)O)CC3)cc1C (single isomer, unassigned) [Example 243]", "assigned_class": "label 1"}
{"compound": "C/C=C/C1=Cc2ccccc2[C@]12CC[C@@](Nc1cccc(Cl)c1)(C(=O)O)CC2", "assigned_class": "label 1"}
{"compound": "O=C(O)[C@]1(Nc2cccc(Cl)c2)CC[C@]2(CC1)C(C1=CCCCC1)=Cc1ccccc12", "assigned_class": "label 0"}
{"compound": "O=C(O)C1(Nc2cccc(Cl)c2)CCC2(CC1)c1ccccc1-c1ccccc12", "assigned_class": "label 0"}
{"compound": "O=C(O)[C@]1(Nc2cccc(Br)c2)CC[C@]2(CC1)c1ccccc1CC2CCc1ccccn1 (mixture of isomers)", "assigned_class": "label 0"}

Is reported pKi greater than or equal to 6 here: COc1ccc(C2Cc3ccccc3[C@]23CC[C@@](Nc2cccc(Cl)c2)(C(=O)O)CC3)c(C)c1 (single isomer, unassigned) [Example 254]
label 0

How about this compound: "CC[C@H](COc1ccnc2ccsc12)C[C@H]1Cc2ccccc2[C@]12CC[C@@](Nc1cccc(Cl)c1)(C(=O)O)CC2"
label 1

Same lookup for Cc1cc(OCCCC2Cc3ccccc3[C@]23CC[C@@](Nc2cccc(Cl)c2)(C(=O)O)CC3)ccn1 (some centres unmarked) , please.
label 1

Can you handle "O=C(O)[C@]1(Nc2cccc(Cl)c2)CC[C@@]2(CC1)c1ccccc1C[C@@H]2C[C@H](COc1cccnc1)c1ccccc1" next?
label 1

Again, but for CC(C)C(COc1ccccc1)CC1Cc2ccccc2[C@]12CC[C@@](Nc1cccc(Cl)c1)(C(=O)O)CC2 (single isomer, unassigned) [Example 530]
label 0
